Test system: Adrenergic receptor alpha-1 (Oryctolagus cuniculus)
assay method text: Alpha-1 adrenergic receptor affinity using ring preparations of rabbit thoracic aorta (RbTA).
readout kind: pKB

{"compound": "CN(C)CCc1c(C(=O)NCc2ccccc2N)[nH]c2ccc(CCN3C(=O)N(C)C(C)(c4ccccc4)C3=O)cc12 (configuration not stated)", "pKB": 4.78}
{"compound": "CN(C)CCc1c(C(=O)NCc2ccc(Cl)cc2)[nH]c2ccc(CCN3C(=O)NC(C)(C)C3=O)cc12", "pKB": 5.86}
{"compound": "CN(C)CCc1c(C(=O)NCc2ccccc2N)[nH]c2ccc(CCN3C(=O)NC(C)(C)C3=O)cc12", "pKB": 4.79}
{"compound": "Cc1ccc(CNC(=O)c2[nH]c3ccc(CCN4C(=O)NC(C)(C)C4=O)cc3c2CCN(C)C)cc1", "pKB": 6}
{"compound": "CN(C)CCc1c(C(=O)NCc2ccccc2N)[nH]c2ccc(CCN3C(=O)NC(C)(c4ccccc4)C3=O)cc12 (configuration not stated)", "pKB": 5.21}
{"compound": "CN(C)CCc1c(C(=O)NCc2ccccc2N)[nH]c2ccc(CCN3C(=O)CNC3=O)cc12", "pKB": 5.73}
{"compound": "CN(C)CCc1c(C(=O)NCc2cccc(N)c2)[nH]c2ccc(CCN3C(=O)NC(C)(C)C3=O)cc12", "pKB": 4.58}
{"compound": "CN(C)CCc1c(C(=O)NCc2ccccc2)[nH]c2ccc(CCN3C(=O)N(C)C(C)(c4ccccc4)C3=O)cc12 (configuration not stated)", "pKB": 5.5}
{"compound": "CN(C)CCc1c(C(=O)NCc2ccccc2)[nH]c2ccc(CCN3C(=O)NC(C)(c4ccccc4)C3=O)cc12 (configuration not stated)", "pKB": 5.27}
{"compound": "CN(C)CCc1c(C(=O)NCc2ccccc2O)[nH]c2ccc(CCN3C(=O)NC(C)(C)C3=O)cc12", "pKB": 5}
{"compound": "CN(C)CCc1c(C(=O)NCc2ccccc2)[nH]c2ccc(CCN3C(=O)CNC3=O)cc12", "pKB": 5.77}
{"compound": "C#CCNC(=O)c1[nH]c2ccc(CCN3C(=O)NC(C)(C)C3=O)cc2c1CCN(C)C", "pKB": 4.62}
{"compound": "CN(C)CCc1c(C(=O)NCc2ccc(S(C)(=O)=O)cc2)[nH]c2ccc(CCN3C(=O)NC(C)(C)C3=O)cc12", "pKB": 4.52}
{"compound": "COc1cccc(CNC(=O)c2[nH]c3ccc(CCN4C(=O)NC(C)(C)C4=O)cc3c2CCN(C)C)c1", "pKB": 5.17}
{"compound": "CN(C)CCc1c(C(=O)NCc2ccccc2)[nH]c2ccc(CCN3C(=O)NC(C)(C)C3=O)cc12", "pKB": 5.2}

* * *

Tested on: Adrenergic receptor alpha-1 (Oryctolagus cuniculus)
assay method text: Alpha-1 adrenergic receptor affinity using ring preparations of rabbit thoracic aorta (RbTA).
readout kind: pKB

{"smiles str": "CN(C)CCc1c(C(=O)NCc2ccccc2Cl)[nH]c2ccc(CCN3C(=O)NC(C)(C)C3=O)cc12", "pKB": 5.35}
{"smiles str": "CN(C)CCc1c(C(=O)NCc2ccccc2N)[nH]c2ccc(CCN3C(=O)NC(c4ccccc4)(c4ccccc4)C3=O)cc12", "pKB": 5.43}
{"smiles str": "CN(C)CCc1c(C(=O)NCc2ccc(Cl)cc2)[nH]c2ccc(CCN3C(=O)CNC3=O)cc12", "pKB": 6.47}

Reference for the values: ChEMBL document CHEMBL1132291
